log10 ED50 values by entry
System: sensitivity of mice to pressure stress (artery clip on tail)
assay notes: Modified Haffner's analgesia (artery clip on tail)
Format: in vivo, mice (male, Charles River, CD-1)
applied conditions: Mus musculus, sc; mice, s.c., at peak time of drug activity; read-out: Modified Haffner's Analgesia ED50
Reminder: these figures are log10 of reported ED50, in mg/kg before transformation.

Sample answers from the record:
Given the molecule CCN(c1ccncc1)n1c2ccccc2c2ccccc21.O=C(O)/C=C\C(=O)O , what is its reported log10 ED50?
0.63

Given the molecule CCCN(c1ccncc1)n1c2ccccc2c2ccccc21.O=C(O)/C=C\C(=O)O , what is its reported log10 ED50?
0.99

Given the molecule C=CCN(c1ccncc1)n1c2ccccc2c2ccccc21.O=C(O)/C=C\C(=O)O , what is its reported log10 ED50?
0.08

Given the molecule Cl.Fc1cnccc1Nn1c2ccccc2c2ccccc21 , what is its reported log10 ED50?
-0.15

Given the molecule CN(c1ccncc1)n1c2ccccc2c2ccccc21.O=C(O)/C=C\C(=O)O , what is its reported log10 ED50?
-0.72

Given the molecule O=C(O)/C=C\C(=O)O.c1ccc2c(c1)c1ccccc1n2Nc1ccncc1 , what is its reported log10 ED50?
-0.40

New cases:
Given the molecule Brc1ccc2c(c1)c1ccccc1n2Nc1ccncc1.O=C(O)/C=C\C(=O)O , what is its reported log10 ED50?
0.04

* * *

ED50 values by entry
System: tetrabenazine-induced ptosis
assay notes: Prevention of Tetrabenazine-Induced Ptosis in Mice
Assay type: in vivo, mice (male)
applied conditions: Mus musculus, po; mice, p.o.; TBZ 60 mg/kg i.p.; read-out: Antidepressant activity ED50
// units = mg/kg; emit number, no label

Sample answers from the record:
Given the compound C=CCN(c1ccncc1)n1c2ccccc2c2ccccc21.O=C(O)/C=C\C(=O)O , what is its reported ED50?
3.7

Given the compound CCCCN(c1ccncc1)n1c2ccccc2c2ccccc21.Cl , what is its reported ED50?
5.2

Given the compound CN(c1ccncc1)n1c2ccccc2c2ccccc21.O=C(O)/C=C\C(=O)O , what is its reported ED50?
1.5

Given the compound O=C(O)/C=C\C(=O)O.c1ccc2c(c1)c1ccccc1n2Nc1ccncc1 , what is its reported ED50?
2.3

Given the compound CCCN(c1ccncc1)n1c2ccccc2c2ccccc21.O=C(O)/C=C\C(=O)O , what is its reported ED50?
1.5

New cases:
Given the compound CCN(c1ccncc1)n1c2ccccc2c2ccccc21.O=C(O)/C=C\C(=O)O , what is its reported ED50?
2.2

Given the compound Brc1ccc2c(c1)c1ccccc1n2Nc1ccncc1.O=C(O)/C=C\C(=O)O , what is its reported ED50?
7.6

* * *

Tested on: 2-phenyl-1,4-benzoquinone-induced writhing
assay notes: 2-phenyl-1,4-benzoquinone-induced writhing (PQW) test in mice
Assay type: in vivo
applied conditions: Mus musculus, sc; mice, s.c.; read-out: PQW ED50
quantity: ED50 (mg/kg)
// units = mg/kg; emit number, no label

Sample answers from the record:
API: value(readout= ED50, system= 2-phenyl-1,4-benzoquinone-induced writhing, query= Brc1ccc2c(c1)c1ccccc1n2Nc1ccncc1.O=C(O)/C=C\C(=O)O )
1.2

API: value(readout= ED50, system= 2-phenyl-1,4-benzoquinone-induced writhing, query= C=CCN(c1ccncc1)n1c2ccccc2c2ccccc21.O=C(O)/C=C\C(=O)O )
1

API: value(readout= ED50, system= 2-phenyl-1,4-benzoquinone-induced writhing, query= CCCN(c1ccncc1)n1c2ccccc2c2ccccc21.O=C(O)/C=C\C(=O)O )
4.3

API: value(readout= ED50, system= 2-phenyl-1,4-benzoquinone-induced writhing, query= O=C(O)/C=C\C(=O)O.c1ccc2c(c1)c1ccccc1n2Nc1ccncc1 )
0.5

API: value(readout= ED50, system= 2-phenyl-1,4-benzoquinone-induced writhing, query= Cl.Fc1cnccc1Nn1c2ccccc2c2ccccc21 )
1.3

API: value(readout= ED50, system= 2-phenyl-1,4-benzoquinone-induced writhing, query= CCN(c1ccncc1)n1c2ccccc2c2ccccc21.O=C(O)/C=C\C(=O)O )
1.1

Consider now this further molecule.
API: value(readout= ED50, system= 2-phenyl-1,4-benzoquinone-induced writhing, query= CN(c1ccncc1)n1c2ccccc2c2ccccc21.O=C(O)/C=C\C(=O)O )
0.1

These data points were gathered from patent US4868190A.
